biological target: JAK1-JH2 domain (Homo sapiens); construct: JAK1-JH2 domain or TYK2-JH2 domain enzyme in assay buffer; test: Binding activity test for JH2 domain of JAK1 (Tb-antibody/tracer FRET); details: JH2 domain enzyme; 60 min at 25°C, then 4°C overnight; read-out: JAK1 JH2 Binding IC50
Sequence (P23458 583-855 limits assumed): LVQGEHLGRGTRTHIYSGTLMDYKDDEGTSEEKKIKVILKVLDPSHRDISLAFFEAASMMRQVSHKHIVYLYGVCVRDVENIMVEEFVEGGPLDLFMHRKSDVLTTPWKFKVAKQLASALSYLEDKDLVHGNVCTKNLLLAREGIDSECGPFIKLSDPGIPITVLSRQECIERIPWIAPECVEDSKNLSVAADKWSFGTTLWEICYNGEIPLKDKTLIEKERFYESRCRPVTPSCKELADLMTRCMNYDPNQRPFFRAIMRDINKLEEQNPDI
Response field label takes 1 when IC50 is strictly below 20 nM and 0 in all other cases.

Examples with answers:
[2H]C([2H])([2H])OCc1ccc2c(c(Nc3cc(NC(=O)C4CC4)ncc3C(F)(F)CC)nn2C)c1OC = 1
[2H]C([2H])([2H])NC(=O)c1cnc(NC(=O)C2CC2)nc1Nc1cnn2ccc([C@H](O)C(F)(F)F)c(OC)c12 = 0
CCC(=O)c1cnc(NC(=O)C2CC2)cc1Nc1ccc2[nH]cnc2c1OC [Example 197, reference compound] = 1

// switching to the query compound
# check: IC50 < 20 nM for [2H]C([2H])([2H])CC(=O)c1cnc(NC(=O)C2CC2)cc1Nc1nn(C)c2ccc([C@@H](O)C(F)(F)F)c(OC)c12 [Example 54B]
1

###

Recorded JAK1/TYK2 selectivity for the following compounds
biological target: TYK2-JH2 domain (Homo sapiens); construct: JAK1-JH2 domain or TYK2-JH2 domain enzyme in assay buffer; assay: Binding activity test for JH2 domain of TYK2 (Tb-antibody/tracer FRET); conditions: ratio of JAK1 JH2 to TYK2 JH2 binding IC50
Sequence (P29597 589-875 limits assumed): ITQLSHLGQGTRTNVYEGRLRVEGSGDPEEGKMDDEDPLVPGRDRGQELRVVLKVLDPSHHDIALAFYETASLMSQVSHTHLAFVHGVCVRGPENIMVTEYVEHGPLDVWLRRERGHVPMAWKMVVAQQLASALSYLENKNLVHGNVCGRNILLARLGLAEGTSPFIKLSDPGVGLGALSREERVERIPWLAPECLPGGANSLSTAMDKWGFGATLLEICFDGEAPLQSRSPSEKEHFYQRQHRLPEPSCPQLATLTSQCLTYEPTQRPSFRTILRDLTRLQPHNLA
Give the value as a plain number.

[2H]C([2H])([2H])OC(=O)c1cnc(NC(=O)C2CC2)cc1Nc1cnn2ccc([C@H](OC)C(F)(F)F)c(OC)c12 = 150.32

Form field: reported JAK1/TYK2 selectivity of [2H]C([2H])([2H])NC(=O)c1cnc(NC(=O)C2CC2)cc1Nc1cnn2ccc(C)c(OC)c12
48.3

Form field: reported JAK1/TYK2 selectivity of [2H]C([2H])([2H])NC(=O)c1cnc(NC(=O)C2CC23CC3)cc1Nc1cnn2ccc([C@H](O)C(F)(F)F)c(OC)c12 (single isomer, unassigned) [Example 32B]
106.2

Form field: reported JAK1/TYK2 selectivity of [2H]C([2H])([2H])NC(=O)c1cnc(NC(=O)C2CC2)cc1Nc1cnn2ccc(C(C)O)c(OC)c12 (centres unmarked)
72.7

Form field: reported JAK1/TYK2 selectivity of COc1c(Nc2cc(NC(=O)C3CC3)ncc2C(C)(F)F)cccc1-c1cnn(C)n1
3.81

Form field: reported JAK1/TYK2 selectivity of [2H]C([2H])([2H])NC(=O)c1cnc(NC(=O)C2CC2)cc1Nc1cnn2ccc(C(F)(F)F)c(OC)c12
43.3

Form field: reported JAK1/TYK2 selectivity of [2H]C([2H])([2H])NC(=O)c1cnc(NC(=O)[C@@H]2C[C@@H]2F)cc1Nc1cnn2ccc(COC)c(OC)c12
125.0

###

Recorded IC50 for the following molecules
molecular target: TYK2-JH2 domain (Homo sapiens); construct: JAK1-JH2 domain or TYK2-JH2 domain enzyme in assay buffer; experiment: Binding activity test for JH2 domain of TYK2 (Tb-antibody/tracer FRET); settings: JH2 domain enzyme; 60 min at 25°C, then 4°C overnight; read-out: TYK2 JH2 Binding IC50
Note: unit nM is implicit; provide only the numeric part.

[2H]C([2H])([2H])NC(=O)c1cnc(NC(=O)C2CC2)cc1Nc1cnn2ccc(COC)c(OC)c12 = 0.22
[2H]C([2H])([2H])OC(c1ccc2c(c(Nc3cc(NC(=O)C4CC4)ncc3C(=O)OC)nn2C([2H])([2H])[2H])c1OC)C(F)F (centres unmarked) = 0.19
COC(=O)c1cnc(NC(=O)C2CC2)cc1Nc1nn(C)c2ccc(C(OC)C(C)(F)F)c(OC)c12 (centres unmarked) [Example 115] = 0.182
CCn1nc(Nc2cc(NC(=O)C3CC3)ncc2C(=O)OC)c2c(OC)c(C(OC)C(F)(F)F)ccc21 (single isomer, unassigned) [Example 66B] = 0.13
[2H]C([2H])([2H])CC(=O)c1cnc(NC(=O)C2CC2)cc1Nc1nn(C)c2ccc(COC)c(OC)c12 = 0.174
COc1c([C@H](OC)C(F)(F)F)ccc2c1c(Nc1cc(NC(=O)C3CC3)ncc1C(=O)O)nn2C = 0.08
CCC(F)(F)c1cnc(NC(=O)C2CC2)cc1Nc1nccc2c1N(C)C(C)c1nn(C)nc1-2 (centres unmarked) = 3.16
[2H]C([2H])([2H])CC(=O)c1cnc(NC(=O)C2CC2)cc1Nc1ncc2cnn(CC(C)(F)F)c2c1OC = 0.891

Under TYK2-JH2 domain (Homo sapiens): IC50 value of COC(=O)c1cnc(NC(=O)C2CC2)cc1Nc1nn(C)c2ccc(CC(F)(F)F)c(OC)c12 ?
0.091

Under TYK2-JH2 domain (Homo sapiens): IC50 value of [2H]C([2H])([2H])OCc1ccc2c(c(Nc3cc(NC(=O)C4CC4)ncc3C(F)(F)CC)nn2C)c1OC ?
0.79

Values were extracted from patent EP4813463A2.
